System: Vero E6 cells
Experiment: Cytotoxicity, trypan blue exclusion
Type: cell-based
Settings: 50% cytotoxic concentration, Vero E6 cells, 72 h
endpoint: CD50 (µM)
Output spec: scalar in µM, unitless text.

Worked cases, answers included:
Would you please give the reported CD50 of Nc1nc2cc(F)c(F)cc2n1[C@@H]1O[C@H](CO)C[C@H]1O [Compound 16] with Vero E6 cells?
3315.58

Would you please give the reported CD50 of Fc1cc2nc[nH]c2cc1F [Compound 2, 5,6-Difluorobenzimidazole] with Vero E6 cells?
2433.81

Would you please give the reported CD50 of Fc1cc2nc[nH]c2c(F)c1F [Compound 4, 4,5,6-Trifluorobenzimidazole] with Vero E6 cells?
2179.98

Would you please give the reported CD50 of Fc1cc(F)c2[nH]cnc2c1 [Compound 3, 4,6-Difluorobenzimidazole] with Vero E6 cells?
2489.32

Would you please give the reported CD50 of c1ccc2[nH]cnc2c1 [Compound 1, Benzimidazole] with Vero E6 cells?
6313.85

Would you please give the reported CD50 of Nc1nc2cc(F)c(F)cc2[nH]1 [Compound 8, 2-Amino-5,6-difluorobenzimidazole] with Vero E6 cells?
1659.39

Would you please give the reported CD50 of COc1c(F)cc2nc[nH]c2c1F [Compound 5, 4,6-Difluoro-5-methoxybenzimidazole] with Vero E6 cells?
2909.48

Would you please give the reported CD50 of OC[C@@H]1C[C@@H](O)[C@H](n2cnc3cc(F)c(F)cc32)O1 [Compound 10] with Vero E6 cells?
2901.81

Others:
Would you please give the reported CD50 of Nc1nc2ccccc2[nH]1 [Compound 6, 2-aminobenzimidazole] with Vero E6 cells?
1422.89

Would you please give the reported CD50 of COc1cc2nc(N)[nH]c2cc1F [Compound 7, 2-amino-5-fluoro-6-methoxybenzimidazole] with Vero E6 cells?
2165.79
